Data provenance: patent US20190367631A1

assayedTarget: T1, human MSR1 extracellular domain expressed with a N-terminal nonahistidine tag (His9-hMSR1); R&D Systems, Cat … (human, UniProt P21757 77-451)
T1 construct: extracellular domain; also called His-hMSR1; 9xHis-hMSR1; not shown: N-terminal nonahistidine tag
T1 sequence (looked up): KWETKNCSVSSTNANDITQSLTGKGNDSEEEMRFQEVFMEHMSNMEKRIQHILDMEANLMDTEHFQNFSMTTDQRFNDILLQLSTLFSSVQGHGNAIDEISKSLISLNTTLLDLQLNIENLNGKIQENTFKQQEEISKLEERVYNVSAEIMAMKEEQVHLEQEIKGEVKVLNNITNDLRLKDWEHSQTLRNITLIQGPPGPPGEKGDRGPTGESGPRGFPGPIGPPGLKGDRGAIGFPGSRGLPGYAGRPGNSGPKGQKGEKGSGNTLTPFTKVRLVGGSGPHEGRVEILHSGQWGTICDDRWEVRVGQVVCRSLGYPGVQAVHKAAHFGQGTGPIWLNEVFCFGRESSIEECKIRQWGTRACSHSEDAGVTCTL
assayText: SPR Biacore, 25 C, antibody captured;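 note: rates from 1:1 fit with mass transport limitation of real-time sensorgrams, HEPES-buffered saline with EDTA and Tween-20 at pH 7.4, KD and t½ derived from the kinetic rates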
measuredQuantity: koff (s⁻¹)
// note: answer is a bare numeric in s⁻¹

(Q) May I ask what koff has been recorded for H1H27731P-N297Q (antibody, V domains shown, Human IgG1 Fc with N297Q point mutation) VH: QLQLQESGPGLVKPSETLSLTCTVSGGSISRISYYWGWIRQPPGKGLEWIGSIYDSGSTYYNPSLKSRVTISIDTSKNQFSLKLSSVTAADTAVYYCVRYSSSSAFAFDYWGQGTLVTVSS VL: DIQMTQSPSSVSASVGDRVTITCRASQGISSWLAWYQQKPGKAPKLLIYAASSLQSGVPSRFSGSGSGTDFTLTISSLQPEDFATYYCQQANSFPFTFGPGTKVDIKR ?
(A) 2.24e-05
